Every entry's value here was drawn from ChEMBL document CHEMBL3351949.

Assay: Half life in brain of APP/PS1 double transgenic APdeltaE9 mouse 4 mg/kg, iv
Type: ADME, organism-based
Set-up: dose 4 mg/kg, route intravenous
METRIC: half-life (min)
Respond with the bare value in min.

Need half-life, item NC(=O)c1ccc(N2CCN(c3nc(-c4cccc(O)c4)cs3)CC2)c(Nc2nc(-c3cccc(O)c3)cs2)c1 6.7

* * *

Test: Drug level in brain of APP/PS1 double transgenic APdeltaE9 mouse 4 mg/kg, iv measured after 10 mins
Assay type: ADME, organism-based
Design: dose 4 mg/kg, route intravenous
Settings: read-out: Drug uptake
METRIC: concentration at 10 min (ng/mL)
Respond with the bare value in ng/mL.

Need concentration at 10 min, item NC(=O)c1ccc(N2CCN(c3nc(-c4cccc(O)c4)cs3)CC2)c(Nc2nc(-c3cccc(O)c3)cs2)c1 40
